Values were extracted from paper PMC5920042.

procedure details: 28-day repeat oral dose toxicity study, toxicokinetics
Assay type: in vivo, Beagle dogs
condition notes: male, Beagle, dog, plasma, po, 62.5 mg/kg, KH176 62.5 mg/kg/dose BID oral, M, Day 28, plasma, read-out: Cmax
observation type: Cmax (ng/mL)

> print(dat)
                                   compound  observation.type  assay.value
1  Cc1c(C)c2c(c(C)c1O)CC[C@@](C)(C(=O)N[C@@H]1CCCNC1)O2.Cl [KH176]              Cmax        12600

====

procedure details: 28-day repeat oral dose toxicity study, toxicokinetics
Assay type: in vivo, Beagle dogs
condition notes: male, Beagle, dog, plasma, po, 25 mg/kg, KH176 25 mg/kg/dose BID oral, M, Day 28, plasma
observation type: half-life (h)

> print(dat)
                                   compound  observation.type  assay.value
1  Cc1c(C)c2c(c(C)c1O)CC[C@@](C)(C(=O)N[C@@H]1CCCNC1)O2.Cl [KH176]         half-life            2

====

procedure details: Single dose pharmacokinetics and bioavailability study
Type: in vivo, male Sprague Dawley rats
condition notes: male, Sprague Dawley, plasma, iv; rat, KH176 2 mg/kg i.v.; read-out: Vss
Method: Pharmacokinetics and toxicokinetics measurements were performed by the commercial Contract Research Organizations Sai Life Sciences and WuXi AppTec, respectively, according to their standard protocols and in accordance with relevant guidelines and regulations. C57 BL/6 mice, Sprague Dawley rats, and Beagle dogs were studied.
observation type: Vd

> print(dat)
                                chem.smiles  assay.value
1  Cc1c(C)c2c(c(C)c1O)CC[C@@](C)(C(=O)N[C@@H]1CCCNC1)O2.Cl       7 L/kg

====

procedure details: 28-day repeat oral dose toxicity study, toxicokinetics
Format: in vivo, Sprague Dawley rats
condition notes: female, Sprague Dawley, rat, plasma, po, 25 mg/kg, KH176 25 mg/kg/dose BID oral, F, Day 28, plasma, read-out: Cmax
observation type: Cmax (ng/mL)

> print(dat)
                                chem.smiles  assay.value
1  Cc1c(C)c2c(c(C)c1O)CC[C@@](C)(C(=O)N[C@@H]1CCCNC1)O2.Cl         2270

====

procedure details: 28-day repeat oral dose toxicity study, toxicokinetics
Assay type: in vivo, Sprague Dawley rats
condition notes: male, Sprague Dawley, rat, plasma, po, 250 mg/kg, KH176 250 mg/kg/dose BID oral, M, Day 1, plasma, read-out: AUC0–24 h
observation type: AUC(0-t) (µg·h/mL)

> print(dat)
                                chem.smiles  observation.type  assay.value
1  Cc1c(C)c2c(c(C)c1O)CC[C@@](C)(C(=O)N[C@@H]1CCCNC1)O2.Cl          AUC(0-t)           94

====

procedure details: 28-day repeat oral dose toxicity study, toxicokinetics
Type: in vivo, Beagle dogs
condition notes: female, Beagle, dog, plasma, po, 62.5 mg/kg, KH176 62.5 mg/kg/dose BID oral, F, Day 28, plasma, read-out: Cmax
Method: Pharmacokinetics and toxicokinetics measurements were performed by the commercial Contract Research Organizations Sai Life Sciences and WuXi AppTec, respectively, according to their standard protocols and in accordance with relevant guidelines and regulations. C57 BL/6 mice, Sprague Dawley rats, and Beagle dogs were studied.
observation type: Cmax (ng/mL)

> print(dat)
                                   compound  assay.value
1  Cc1c(C)c2c(c(C)c1O)CC[C@@](C)(C(=O)N[C@@H]1CCCNC1)O2.Cl [KH176]        10200
